target: GSK3β (H350L) (Homo sapiens (Human)); details: read-out: GSK3β Ki
Sequence (P49841 whole entry, stated change not applied): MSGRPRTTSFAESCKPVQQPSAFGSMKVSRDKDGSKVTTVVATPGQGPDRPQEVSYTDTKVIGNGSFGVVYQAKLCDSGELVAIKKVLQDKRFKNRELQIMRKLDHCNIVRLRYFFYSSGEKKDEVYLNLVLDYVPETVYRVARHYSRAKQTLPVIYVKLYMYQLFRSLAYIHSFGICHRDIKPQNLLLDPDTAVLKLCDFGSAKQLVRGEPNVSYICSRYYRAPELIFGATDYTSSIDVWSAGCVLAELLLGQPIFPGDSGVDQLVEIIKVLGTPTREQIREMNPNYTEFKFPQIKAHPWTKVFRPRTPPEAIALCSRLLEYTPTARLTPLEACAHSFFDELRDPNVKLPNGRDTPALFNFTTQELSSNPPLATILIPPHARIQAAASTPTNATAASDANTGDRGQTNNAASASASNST
Threshold 30 nM: Ki strictly smaller gives true (1), otherwise false (0).

[
  {
    "smiles structure": "CC1(C)CCCN1C(=O)O[C@@H]1CC[C@H](c2cc(NC(=O)Cc3cnco3)n[nH]2)C1",
    "tgt": "GSK3β (H350L) (Homo sapiens (Human))",
    "discrete label": "true (1)"
  },
  {
    "smiles structure": "Cc1cc(CC(=O)Nc2cc([C@H]3CC[C@@H](OC(=O)N4CCC[C@@H]4C)C3)[nH]n2)on1",
    "tgt": "GSK3β (H350L) (Homo sapiens (Human))",
    "discrete label": "true (1)"
  },
  {
    "smiles structure": "CC[C@H](C)NC(=O)O[C@@H]1CC[C@H](c2cc(NC(=O)Cc3cnn(C)c3)n[nH]2)C1",
    "tgt": "GSK3β (H350L) (Homo sapiens (Human))",
    "discrete label": "false (0)"
  },
  {
    "smiles structure": "Cc1ncc(CC(=O)Nc2cc([C@H]3CC[C@@H](OC(=O)NC(C)(C)C)C3)[nH]n2)s1",
    "tgt": "GSK3β (H350L) (Homo sapiens (Human))",
    "discrete label": "true (1)"
  },
  {
    "smiles structure": "C[C@H]1CCCN1C(=O)O[C@@H]1CC[C@H](c2cc(NC(=O)Cc3ccon3)n[nH]2)C1",
    "tgt": "GSK3β (H350L) (Homo sapiens (Human))",
    "discrete label": "true (1)"
  },
  {
    "smiles structure": "CCN(C)C(=O)O[C@@H]1CC[C@H](c2cc(NC(=O)Cc3ccc(C)nc3)n[nH]2)C1",
    "tgt": "GSK3β (H350L) (Homo sapiens (Human))",
    "discrete label": "true (1)"
  },
  {
    "smiles structure": "CCCNC(=O)O[C@H]1CC[C@@H](c2cc(NC(=O)c3cn(C)nc3C)n[nH]2)C1",
    "tgt": "GSK3β (H350L) (Homo sapiens (Human))",
    "discrete label": "false (0)"
  },
  {
    "smiles structure": "CC[C@H](C)NC(=O)O[C@@H]1CC[C@H](c2cc(NC(=O)Cc3cnccn3)n[nH]2)C1",
    "tgt": "GSK3β (H350L) (Homo sapiens (Human))",
    "discrete label": "false (0)"
  },
  {
    "smiles structure": "CC[C@H](C)NC(=O)O[C@@H]1CC[C@H](c2cc(NC(=O)Cc3cc(C)ncc3S(C)(=O)=O)n[nH]2)C1",
    "tgt": "GSK3β (H350L) (Homo sapiens (Human))",
    "discrete label": "false (0)"
  },
  {
    "smiles structure": "Cc1cc(CC(=O)Nc2cc([C@@H]3CC[C@H](OC(=O)N[C@H]4CC[C@@H](O)CC4)C3)[nH]n2)ccn1",
    "tgt": "GSK3β (H350L) (Homo sapiens (Human))",
    "discrete label": "true (1)"
  },
  {
    "smiles structure": "CCN(C)C(=O)O[C@H]1CC[C@@H](c2cc(NC(=O)Cc3ccc(OC)nc3)n[nH]2)C1",
    "tgt": "GSK3β (H350L) (Homo sapiens (Human))",
    "discrete label": "true (1)"
  },
  {
    "smiles structure": "CC[C@H](C)NC(=O)O[C@@H]1CC[C@H](c2cc(NC(=O)Cc3sc(C)nc3C)n[nH]2)C1",
    "tgt": "GSK3β (H350L) (Homo sapiens (Human))",
    "discrete label": "false (0)"
  },
  {
    "smiles structure": "CC[C@H](C)CNC(=O)O[C@@H]1CC[C@H](c2cc(NC(=O)Cc3ccno3)n[nH]2)C1",
    "tgt": "GSK3β (H350L) (Homo sapiens (Human))",
    "discrete label": "true (1)"
  },
  {
    "smiles structure": "CCCNC(=O)O[C@H]1CC[C@@H](c2cc(NC(=O)Cc3ccno3)n[nH]2)C1",
    "tgt": "GSK3β (H350L) (Homo sapiens (Human))",
    "discrete label": "true (1)"
  },
  {
    "smiles structure": "CC[C@H](C)NC(=O)O[C@@H]1CC[C@H](c2cc(NC(=O)Cc3ccc(OC)cc3S(C)(=O)=O)n[nH]2)C1",
    "tgt": "GSK3β (H350L) (Homo sapiens (Human))",
    "discrete label": "false (0)"
  },
  {
    "smiles structure": "CC[C@H](C)NC(=O)O[C@@H]1CC[C@H](c2cc(NC(=O)Cc3ccc(COC)cc3S(C)(=O)=O)[nH]n2)C1",
    "tgt": "GSK3β (H350L) (Homo sapiens (Human))",
    "discrete label": "false (0)"
  },
  {
    "smiles structure": "COc1cc(CC(=O)Nc2cc([C@H]3CC[C@@H](OC(=O)N[C@@H](C)CF)C3)[nH]n2)ccn1",
    "tgt": "GSK3β (H350L) (Homo sapiens (Human))",
    "discrete label": "false (0)"
  },
  {
    "smiles structure": "Cc1cnc(CC(=O)Nc2cc([C@H]3CC[C@@H](OC(=O)NC4(CC(F)(F)F)CC4)C3)[nH]n2)cn1",
    "tgt": "GSK3β (H350L) (Homo sapiens (Human))",
    "discrete label": "true (1)"
  },
  {
    "smiles structure": "COc1ncc(CC(=O)Nc2cc([C@H]3CC[C@@H](OC(=O)N4CCOC[C@@H]4C)C3)[nH]n2)s1",
    "tgt": "GSK3β (H350L) (Homo sapiens (Human))",
    "discrete label": "true (1)"
  },
  {
    "smiles structure": "C[C@@H](CC(F)(F)F)NC(=O)O[C@@H]1CC[C@H](c2cc(NC(=O)c3cnnn3C)n[nH]2)C1",
    "tgt": "GSK3β (H350L) (Homo sapiens (Human))",
    "discrete label": "true (1)"
  },
  {
    "smiles structure": "Cn1nncc1C(=O)Nc1cc([C@H]2CC[C@@H](OC(=O)NC(C)(C)C)C2)[nH]n1",
    "tgt": "GSK3β (H350L) (Homo sapiens (Human))",
    "discrete label": "false (0)"
  },
  {
    "smiles structure": "CC[C@H](C)NC(=O)O[C@@H]1CC[C@H](c2cc(NC(=O)Cc3scnc3C)n[nH]2)C1",
    "tgt": "GSK3β (H350L) (Homo sapiens (Human))",
    "discrete label": "false (0)"
  },
  {
    "smiles structure": "CCCNC(=O)O[C@H]1CC[C@@H](c2cc(NC(=O)Cc3cnc(C)o3)n[nH]2)C1",
    "tgt": "GSK3β (H350L) (Homo sapiens (Human))",
    "discrete label": "false (0)"
  },
  {
    "smiles structure": "Cc1cc(CC(=O)Nc2cc([C@H]3CC[C@@H](OC(=O)N4CCCC[C@H]4C)C3)[nH]n2)on1",
    "tgt": "GSK3β (H350L) (Homo sapiens (Human))",
    "discrete label": "true (1)"
  },
  {
    "smiles structure": "CC[C@H](C)NC(=O)O[C@@H]1CC[C@H](c2cc(NC(=O)Cc3cnn(C(C)C)c3)n[nH]2)C1",
    "tgt": "GSK3β (H350L) (Homo sapiens (Human))",
    "discrete label": "false (0)"
  },
  {
    "smiles structure": "CCN(C)C(=O)O[C@@H]1CC[C@H](c2cc(NC(=O)Cc3cnc(C)s3)n[nH]2)C1",
    "tgt": "GSK3β (H350L) (Homo sapiens (Human))",
    "discrete label": "true (1)"
  },
  {
    "smiles structure": "C[C@]1(O)CC[C@@H](NC(=O)O[C@H]2CC[C@@H](c3cc(NC(=O)Cc4ccc(F)cc4)n[nH]3)C2)CC1",
    "tgt": "GSK3β (H350L) (Homo sapiens (Human))",
    "discrete label": "true (1)"
  },
  {
    "smiles structure": "CC[C@H](C)NC(=O)O[C@@H]1CC[C@H](c2cc(NC(=O)c3cc(COC)nn3C)n[nH]2)C1",
    "tgt": "GSK3β (H350L) (Homo sapiens (Human))",
    "discrete label": "false (0)"
  },
  {
    "smiles structure": "CCCNC(=O)O[C@H]1CC[C@@H](c2cc(NC(=O)c3ccc(C)nc3C)n[nH]2)C1",
    "tgt": "GSK3β (H350L) (Homo sapiens (Human))",
    "discrete label": "false (0)"
  }
]
